The entries below are paired with their reported pKd.
Target: EGFR-pY978
Assay: fluorescence polarization
pKd: −log10 of the molar value.

BINDER: K15L (designed binder) MKIEEHHHHHHSSGRENLYFQGGAAQPAAPVDSIQAEEWYFGKLGRKDAERQLLSFGNPRGTFLIRESETTKGAYSLSIRDWDDMKGDHVKHYLIRKLDNGGYYITTRAQFETLQQLVQHYSERAAGLSSRLVVPSHKGAAA
pKd: 6.17
--
BINDER: T8V (designed binder) MKIEEHHHHHHSSGRENLYFQGGAAQPAAPVDSIQAEEWYFGKLGRKDAERQLLSFGNPRGTFLIRESETVKGAYSLSIRDWDDMKGDHVKHYKIRKLDNGGYYITTRAQFETLQQLVQHYSERAAGLSSRLVVPSHKGAAA
pKd: 5.62
--
BINDER: T7S S10A K15L (designed binder) MKIEEHHHHHHSSGRENLYFQGGAAQPAAPVDSIQAEEWYFGKLGRKDAERQLLSFGNPRGTFLIRESESTKGAYALSIRDWDDMKGDHVKHYLIRKLDNGGYYITTRAQFETLQQLVQHYSERAAGLSSRLVVPSHKGAAA
pKd: 6.68
--
BINDER: T8V S10A K15L (designed binder) MKIEEHHHHHHSSGRENLYFQGGAAQPAAPVDSIQAEEWYFGKLGRKDAERQLLSFGNPRGTFLIRESETVKGAYALSIRDWDDMKGDHVKHYLIRKLDNGGYYITTRAQFETLQQLVQHYSERAAGLSSRLVVPSHKGAAA
pKd: 8.07
